Where these numbers come from: PubChem BioAssay AID1963965

- Tested on: 996289-038-R-J1-PDC spheroid viability
- ASSAY METHOD TEXT: Anticancer human tumor 996289-038-R-J1-PDC patient-derived colon adenocarcinoma cell line growth inhibition [PI3K]
- CONDITION SUMMARY: second compound 0.00316 µM; first compound 0.1 µM; stronger effect = lower value; spheroids with HUVEC and MSC
- Description: Combinatorial screen of targeted agents with the PI3K inhibitors inavolisib, alpelisib, duvelisib, and copanlisib in multi-cell type tumor spheroids A high-throughput screen of multi-cell type tumor spheroids was designed to identify active combinations of targeted small molecules and PI3K pathway inhibitors. […] Compounds. […] If the clinical Cmax for an agent had not been determined, the highest concentration tested was 10 microM. […]
READOUT LABEL: viability, T/C (%)
Respond numerically; units are % and should not be typed.

Given the compound CC(Cn1ccc(-c2ccc(C#N)c(Cl)c2)n1)NC(=O)c1cc(C(C)O)[nH]n1 (stereo not drawn) + COc1c(OCCCN2CCOCC2)ccc2c3n(c(=NC(=O)c4cnc(N)nc4)nc12)CCN3 , write its reported viability, T/C. 91.1

State its viability, T/C for this compound: Cn1ncnc1[C@H]1c2n[nH]c(=O)c3cc(F)cc(c23)N[C@@H]1c1ccc(F)cc1 + CC(Nc1ccc2c(c1)OCCn1cc(N3C(=O)OCC3C(F)F)nc1-2)C(N)=O 90.2

In one line, give reported viability, T/C of the entry CC1(C)CCC(Nc2ncc(C(F)(F)F)c(-c3c[nH]c4c(P(C)(C)=O)c(C#N)ccc34)n2)CN1 (stereo not drawn) + CC(Nc1ccc2c(c1)OCCn1cc(N3C(=O)OCC3C(F)F)nc1-2)C(N)=O . 90.6

----------
- Test system: 996289-038-R-J1-PDC spheroid viability
- ASSAY METHOD TEXT: Anticancer human tumor 996289-038-R-J1-PDC cell line growth inhibition [PI3K];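 also: luminescence used as a proxy for viable cell amount; spheroids exposed to compounds for seven days before viability read; percent viability relative to DMSO vehicle control as 100%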
- CONDITION SUMMARY: second compound 1 µM; first compound 3.16 µM; stronger effect = lower value; spheroids with HUVEC and MSC
- Excerpt: Combinatorial screen of targeted agents with the PI3K inhibitors inavolisib, alpelisib, duvelisib, and copanlisib in multi-cell type tumor spheroids A high-throughput screen of multi-cell type tumor spheroids was designed to identify active combinations of targeted small molecules and PI3K pathway inhibitors. […] Compounds. […] If the clinical Cmax for an agent had not been determined, the highest concentration tested was 10 microM. […]
The following molecules are shown together with reported viability, T/C values.

Check 996289-038-R-J1-PDC spheroid viability data and give viability, T/C for CC1(C)CCC(Nc2ncc(C(F)(F)F)c(-c3c[nH]c4c(P(C)(C)=O)c(C#N)ccc34)n2)CN1 (stereo unspecified) + CC(Nc1ccc2c(c1)OCCn1cc(N3C(=O)OCC3C(F)F)nc1-2)C(N)=O . 66.8%

For 996289-038-R-J1-PDC spheroid viability, give the measured viability, T/C of the entry C[C@@H](NC(=O)c1ncnc(N)c1Cl)c1ncc(C(=O)Nc2cc(C(F)(F)F)c(Cl)cn2)s1 + CC(Nc1ccc2c(c1)OCCn1cc(N3C(=O)OCC3C(F)F)nc1-2)C(N)=O 85.6%

// fetch viability, T/C for CCCS(=O)(=O)Nc1ccc(F)c(C(=O)c2c[nH]c3ncc(-c4ccc(Cl)cc4)cc23)c1F + CC(Nc1ncnc2nc[nH]c12)c1cc2cccc(Cl)c2c(=O)n1-c1ccccc1 ; system: 996289-038-R-J1-PDC spheroid viability 102%

Send back 996289-038-R-J1-PDC spheroid viability viability, T/C of CC(Cn1ccc(-c2ccc(C#N)c(Cl)c2)n1)NC(=O)c1cc(C(C)O)[nH]n1 (stereo unspecified) + Cc1nc(NC(=O)N2CCCC2C(N)=O)sc1-c1ccnc(C(C)(C)C(F)(F)F)c1 only. 77%

System 996289-038-R-J1-PDC spheroid viability. Read-out viability, T/C. Item CC1(C)CCC(CN2CCN(c3ccc(C(=O)NS(=O)(=O)c4ccc(NCC5CCOCC5)c([N+](=O)[O-])c4)c(Oc4cnc5[nH]ccc5c4)c3)CC2)=C(c2ccc(Cl)cc2)C1 + COc1c(OCCCN2CCOCC2)ccc2c3n(c(=NC(=O)c4cnc(N)nc4)nc12)CCN3 . Report value. 18.8%

--- query ---
Report its viability, T/C with 996289-038-R-J1-PDC spheroid viability as the test system: Cn1ncc(Cl)c1-c1cc(C(=O)NC(CN)Cc2cccc(F)c2)sc1Cl (stereo unspecified) + CC(Nc1ccc2c(c1)OCCn1cc(N3C(=O)OCC3C(F)F)nc1-2)C(N)=O 38.4%
